test: APR_HepG2_CellLoss_24hr: Apredica 24-hour HepG2 Assay for Cell Loss (AID 2282908); settings: high-content imaging
Active and inactive are the calls of the source. How the source made its calls: active means hit-call score of the fitted dose curve at least 0.9, where 1 is the maximum; inactive means score below 0.9.
Mark one answer only. Choices: T for active, F for inactive

1. CCCN(CCC)C(=O)SCC: F
2. CCC(C)OC(=O)N1CCCCC1CCO (configuration not stated): F
3. O=C(c1ccc(O)cc1O)c1ccc(O)cc1O: F

**Q:** Check the results log: what was the call for CC(C)(C)[C@@H](O)[C@@H](Cc1ccc(Cl)cc1)n1cncn1 ?
**A:** F

**Q:** Check the results log: what was the call for CN(C)C(=O)Nc1ccc(Cl)c(Cl)c1 ?
**A:** F

**Q:** Check the results log: what was the call for CCCOC(=O)c1ccc(C(=O)OCCC)nc1 ?
**A:** F

**Q:** Check the results log: what was the call for CCOC(=O)C(C)Oc1ccc(Oc2cnc3cc(Cl)ccc3n2)cc1 (configuration not stated) ?
**A:** T

* * *

target: Peroxisome proliferator-activated receptor gamma (Homo sapiens); experiment: ATG_PPARg_TRANS: Attagene TRANS-FACTORIAL HepG2 Assay for human Peroxisome Proliferator-activated Receptor-gamma (PPARg) (AID 2283007)
Inconclusive results are not listed. Calls of active or inactive are those of the source. The calls were made as follows: active = hit-call score of the fitted dose curve at least 0.9, where 1 is the maximum; inconclusive = response in the unintended direction; inactive = score below 0.9.
MEASURED_METRIC: AC50

1. COC(=O)c1ccc(I)cc1S(=O)(=O)NC(=O)Nc1nc(C)nc(OC)n1: inactive
2. CCC(C)OC(=O)N1CCCCC1CCO (stereo not given): inactive
3. CCOC(=O)[C@H](C)Oc1ccc(Oc2nc3ccc(Cl)cc3o2)cc1: inactive
4. CN(C)C(=O)Nc1ccc(Cl)c(Cl)c1: inactive

Now examine the next entry.
**Q:** So what does the record say about AC50 for c1ccc(Nc2ccccc2)cc1 ?
**A:** 50 µM (active)

* * *

read-out: Cytochrome P450 3A4 (Homo sapiens) (UniProt P08684); assay: LTEA_HepaRG_CYP3A4: Life Technologies and Expression Analysis (LTEA) Assay for CYP3A4 using HepaRG (AID 2283487); conditions: mRNA level, 48 h; actives raise or lower the signal
Sequence (P08684 whole entry, looked up): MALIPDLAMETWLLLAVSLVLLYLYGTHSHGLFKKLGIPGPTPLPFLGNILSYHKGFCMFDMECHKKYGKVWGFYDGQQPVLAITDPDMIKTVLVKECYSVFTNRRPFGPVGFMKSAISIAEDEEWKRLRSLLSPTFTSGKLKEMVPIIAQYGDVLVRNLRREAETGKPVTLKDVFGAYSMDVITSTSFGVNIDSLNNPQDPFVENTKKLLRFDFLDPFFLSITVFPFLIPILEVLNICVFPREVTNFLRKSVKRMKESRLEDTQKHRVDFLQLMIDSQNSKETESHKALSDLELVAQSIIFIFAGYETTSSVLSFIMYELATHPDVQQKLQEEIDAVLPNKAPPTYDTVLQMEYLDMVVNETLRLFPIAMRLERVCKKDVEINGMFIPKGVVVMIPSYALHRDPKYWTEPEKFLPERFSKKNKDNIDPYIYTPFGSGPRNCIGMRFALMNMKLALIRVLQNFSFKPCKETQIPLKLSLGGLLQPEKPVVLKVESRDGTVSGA
Active and inactive are the calls of the source. How the source made its calls: active means hit-call score of the fitted dose curve at least 0.9, where 1 is the maximum; inactive means score below 0.9.
MEASURED_METRIC: AC50

Reference set, count: 4
1) CCN(Cc1c(F)cccc1Cl)c1c([N+](=O)[O-])cc(C(F)(F)F)cc1[N+](=O)[O-]: 8.01 µM (active)
2) COCCO: inactive
3) S=C([S-])NCCNC(=S)[S-].[Mn+2]: 3.36 µM (active)
4) CSC(=O)c1cccc2nnsc12: inactive

**Q:** So what does the record say about AC50 for CCCCC(CC)CN1C(=O)C2C3C=CC(C3)C2C1=O (stereo not given) ?
**A:** 91 µM (active)

**Q:** So what does the record say about AC50 for C[C@]12CC[C@@H]3c4ccc(O)cc4C[C@@H](CCCCCCCCCS(=O)CCCC(F)(F)C(F)(F)F)[C@H]3[C@@H]1CC[C@@H]2O (stereo not given in full) ?
**A:** 31.1 µM (active)

**Q:** So what does the record say about AC50 for C#C[C@]1(O)CC[C@H]2[C@@H]3CCC4=CC(=O)CC[C@@H]4[C@H]3CC[C@@]21CC ?
**A:** inactive

**Q:** So what does the record say about AC50 for COc1c(Cl)ccc(Cl)c1C(=O)O ?
**A:** inactive

**Q:** So what does the record say about AC50 for CC(=O)[C@H]1CC[C@H]2[C@@H]3CCC4=CC(=O)CC[C@]4(C)[C@H]3CC[C@]12C ?
**A:** 36 µM (active)

**Q:** So what does the record say about AC50 for c1ccc(Nc2ccccc2)cc1 ?
**A:** inactive

**Q:** So what does the record say about AC50 for OB(O)O ?
**A:** inactive

**Q:** So what does the record say about AC50 for CC1(C)C(C=C(Cl)Cl)C1C(=O)OCc1cccc(Oc2ccccc2)c1 (stereo not given) ?
**A:** 22.6 µM (active)

**Q:** So what does the record say about AC50 for O=C(c1ccc(O)cc1O)c1ccc(O)cc1O ?
**A:** inactive

**Q:** So what does the record say about AC50 for C#CCOC(=O)[C@@H](C)Oc1ccc(Oc2ncc(Cl)cc2F)cc1 ?
**A:** inactive

**Q:** So what does the record say about AC50 for CCCOC(=O)c1ccc(C(=O)OCCC)nc1 ?
**A:** inactive

**Q:** So what does the record say about AC50 for CCCCOC(=O)C(C)Oc1ccc(Oc2ccc(C(F)(F)F)cn2)cc1 (stereo not given) ?
**A:** inactive

Source: PubChem BioAssay (EPA / NIEHS)
